Test system: S. Typhi PhoP-promoter GFP reporter, fluorescence, 4 h
Assay: PhoP regulon inhibitor project modified counter assay, GFP fluorescence readout, dose response (AID 1985)
observable: pIC50
One number for each entry, as −log10 of the molar value.

{"columns": ["molecule", "pIC50"],
 "data": [
  ["CC1(C)CC(=O)c2c(nc3ccccc3c2N)C1", 3.84],
  ["Oc1c(C(Nc2ccccn2)c2cccnc2)cc(Cl)c2cccnc12 (configuration not stated)", 4.47],
  ["O=C(Oc1c(Br)cc([N+](=O)[O-])cc1Br)c1cccnc1", 4.33],
  ["OC(CNCC1CCCO1)Cn1c2ccc(Cl)cc2c2cc(Cl)ccc21 (configuration not stated)", 4.41],
  ["CN1CC=C(/C=C/c2ccc(-c3ccccc3)cc2)CC1", 4.02]
]}

Hey, quick one: what's pIC50 for each of these?
1. Oc1[nH]c2ccccc2c1N=NC(=S)N1CCOCC1
2. CCCCOc1ccc(C(=O)OC2CC(C)N(C)CC2C)cc1 (configuration not stated)
3. CN1CCN(C2=Cc3ccccc3Sc3cc(F)ccc32)CC1
4. Cc1ccc(C(=O)N/N=C\c2sccc2C)cn1
5. Nc1cccc2nc3ccccc3cc12

1: 4.76; 2: 4.38; 3: 3.94; 4: 3.89; 5: 4.35

Give pIC50 for each listed item.
1. COc1cccc(Nc2cc(C)nc3ccccc23)c1
2. CCOC(=O)Cn1c(=N)n(CCOc2ccc3ccccc3c2)c2ccccc21

4.01
4.10
